tested on: RPMI-8226 leukemia; experiment: NCI-60 one-dose screen, 48 h (100 = growth as untreated, 0 = no growth, -100 = all killed); details: 10 µM unless noted
Compounds without any hit were thinned out: in the full panel of roughly 83,000, 20% have a hit.

{"columns": ["Compound", "Reading unit", "growth"],
 "data": [
  ["COc1ccc(Br)c2ccccc12", "%", 105],
  ["C#CC[C@@H]1C[C@]2(C)[C@H]3CC[C@@H]4[C@H]5C(C(=C)C)CC[C@]5(C(=O)NCCCCCCCCN)CC[C@@]4(C)[C@]3(C)CC[C@H]2C(C)(C)[C@H]1OC(C)=O (stereo partly specified)", "%", 0.0796],
  ["COc1cc2c(cc1OC)C(=O)C(Br)CC2 (stereo unspecified)", "%", 20.6],
  ["CC[C@H](Nc1nc(N)nc(N)c1Cl)c1nc2cccc(NCc3ccc(C(=O)NO)cc3)c2c(=O)n1-c1ccccc1", "%", 3.83],
  ["CCCc1n(Cc2ccc3ccccc3c2)c2ccccc2[n+]1Cc1ccc2ccccc2c1", "%", -60.9],
  ["COc1ccc(-c2nc3ccc(Cc4ccc5nc(-c6ccc(OC)cc6)[nH]c5c4)cc3[nH]2)cc1", "%", 18.5],
  ["COC1CC(N)C2OC(c3ccccc3)OCC2O1 (stereo unspecified)", "%", 92.8],
  ["NC(=Nc1ccccc1)SCCCSC(N)=Nc1ccccc1", "%", 73.4],
  ["COCCOCCOCc1n(Cc2ccc3ccccc3n2)c2ccccc2[n+]1Cc1ccc2ccccc2c1", "%", -30.3],
  ["CC(CN1CCN(CCOCCO)CC1)CN1c2ccccc2Sc2ccc(Cl)cc21 (stereo unspecified)", "%", 60],
  ["COc1ccc(/C(=C\\c2ccc3c(c2)OCO3)C(=O)Nc2nc3ccc(F)cc3s2)cc1OC", "%", 102],
  ["CNCc1cccc2c1OCCOCCOCCC(C)S(=O)(=O)c1ccc(cc1)-c1cnc(N)c(n1)C(=O)N2 (stereo unspecified)", "%", 54.8],
  ["CC(C)OC(=O)c1ccc([N+](=O)[O-])cc1", "%", 98.5],
  ["O=C1OC(c2ccc(-c3ccccc3)cc2)=C/C1=C/c1c(Cl)cccc1Cl", "%", 84.1],
  ["Nc1c(C(=O)c2ccc(Br)cc2)sc2nc3c(cc12)CCCC3", "%", 94.6],
  ["Nc1nc(N)c2cc(Sc3ccc(Cl)cc3)ccc2n1", "%", 20.1],
  ["COC(=O)CNS(=O)(=O)c1ccc2c(c1)Cc1cc(S(=O)(=O)NCC(=O)OC)ccc1-2", "%", 103],
  ["CCCCCCCCCCCCCC[N+](C)(C)CCCCCCCCCCCCCC", "%", 12.6],
  ["CCNC(=S)N(Cc1ccccc1)Cc1ccccc1", "%", 110],
  ["COc1cc(C2CC(c3ccc(Cl)cc3)=NN2C=O)ccc1OS(=O)(=O)c1ccc(C)cc1 (stereo unspecified)", "%", 82.4],
  ["O=c1cc(N2CCOCC2)oc2c(-c3ccc4c(c3)OCCO4)csc12", "%", -0.399],
  ["Clc1ccc(Nc2ncnc3c2sc2ncccc23)cc1", "%", 38.2],
  ["O=C(/C=C/c1cc([N+](=O)[O-])ccc1Cl)c1ccccc1", "%", 20.9],
  ["COc1cc(-c2csc(NC(=O)Nc3cccc(C(F)(F)F)c3)n2)cc(OC)c1OC", "%", 18.6],
  ["CC(C)c1ccc(Cn2ccc3c4c(N)nc(NC5CC5)nc4ccc32)cc1", "%", -54.7],
  ["CCCCCCCCCCCCCCCCS(=O)(=O)Nc1cc(C(=O)NN)cc(C(=O)NN)c1", "%", 68],
  ["COc1ccc(/C=C(/C(=O)N2CCN(c3ccccc3)CC2)c2cc(OC)c(OC)c(OC)c2)cc1N", "%", 7.73],
  ["CC1CCN(Cc2ccc(NC(=O)c3cc4ccc5cccnc5c4[nH]3)cc2)CC1", "%", 19.8],
  ["COc1cc(OC)cc(-c2n/c(=C\\c3c(O)[nH]c4ccc(Cl)cc34)cc3c2=Nc2ccccc2-3)c1", "%", 71.2],
  ["Cc1ccc(-c2nc3ccccc3c(=O)n2/N=C/c2cccc3ccccc23)cc1", "%", 73.6],
  ["COc1cc(Nc2ccnc3ccc(Br)cc23)cc(OC)c1OC", "%", 30.4],
  ["COCCCNCC(=O)Nc1c(C)cccc1C", "%", 108],
  ["CC(=O)c1nn(-c2ccccc2)/c(=N\\N=C\\c2coc3ccc(F)cc3c2=O)s1", "%", 91.9],
  ["O=C(Nc1cccc(Cl)c1)Nc1cc(C(F)(F)F)ccc1Cl", "%", -14],
  ["Fc1ccc2nc(-c3ccc(-c4noc(-c5ccc(Cl)cc5)n4)cc3)[nH]c2c1", "%", 106],
  ["Oc1c(C(c2ccc(F)cc2)N2CCCCC2)ccc2cncnc12 (stereo unspecified)", "%", 22.1],
  ["COc1cc2nccc(Oc3ccc(NC(=O)C4(C(=O)Nc5ccc(F)cc5)CC4)cc3)c2cc1O", "%", 52.8],
  ["CC(=O)c1cc(C(=O)c2ccc3c(c2)Sc2ccccc2N3)c2c(C)cccn12", "%", 15.7],
  ["C=CCn1c(SCC(=O)Nc2ccc(C(=O)/C=C/c3ccccc3)cc2)nnc1-c1ccc(OC)c(OC)c1", "%", 2.52],
  ["Cc1nc2ccc(Nc3nc(NCCN4CCOCC4)nc(Nc4ccc(F)cc4)n3)cc2n1Cc1ccccc1", "%", 3.11],
  ["O=[N+]([O-])c1cccc(N=C(Nc2cccc([N+](=O)[O-])c2)c2ccccc2)c1", "%", 58.2]
]}
